Please respond with reported GI50 for every item in the list.
- Test system: M19-MEL
- TEST_DESCRIPTION: NCI tumour cell line growth inhibition, 48 h
Calls of active or inactive are those of the source. Cut-off read from the data, not from the text of the source: active = GI50 up to about 1.1 µM and inactive = higher.

{"columns": ["MOLECULE", "GI50"],
 "data": [
  ["O=S(=O)(O)c1cc2ccc1/C=C\\c1ccc(cc1S(=O)(=O)O)/N=N\\c1ccc(c(S(=O)(=O)O)c1)/C=C\\c1ccc(cc1S(=O)(=O)O)/N=N\\2", "> 100 µM (inactive)"],
  ["Cc1cccc(C2SCc3nc4ccccc4n32)c1 (stereo not drawn)", "24 µM (inactive)"],
  ["CC1(CO)C(=O)OC12CCCCC2 (stereo not drawn)", "> 100 µM (inactive)"],
  ["CCN(CC)CCOC(=O)c1ccc(N)cc1.CCOC(=O)Nc1ccc(S(=O)(=O)OC)cc1.CCOC(=O)Nc1ccc(S(=O)(=O)OC)cc1.Nc1ccc(C(=O)O)c(O)c1", "> 100 µM (inactive)"],
  ["O=C(/C=C/c1cccc([N+](=O)[O-])c1)c1ccc([N+](=O)[O-])cc1", "> 100 µM (inactive)"]
]}

For each of the molecules below, note its GI50.
1. CC(C)CN(CC(C)C)C(=O)C1CCCC[C@@H]1C(=O)O (stereo partly drawn)
2. N#Cc1ccc(C2OCC3CC=CCC3CO2)cc1 (stereo not drawn)

1. > 100 µM (inactive)
2. 84.7 µM (inactive)

Form field - read-out: GI50; system: M19-MEL; submitted item: COc1cc([C@@H]2c3cc4c(c(O[C@@H]5O[C@H]6CO[C@@H](C)O[C@H]6[C@H](O)[C@@H]5O)c3C[C@H]3COC(=O)[C@@H]32)OCO4)cc(OC)c1O 20.5 µM (inactive)

----------
- System: M19-MEL
- TEST_DESCRIPTION: NCI tumour cell line growth inhibition, 48 h
Activity calls are given as the source filed them. Rule as the data show it: active = GI50 up to about 1.1 µM and inactive = higher.
Give one outcome, nothing more. List: 1 for active, -1 for inactive

{"columns": ["MOLECULE", "MEASURED_TARGET", "ASSIGNED_LABEL"],
 "data": [
  ["CCC1(Cl)C(=O)NC(=O)N(C2CC(O)C(CO)O2)C1N=[N+]=[N-] (centres undefined)", "M19-MEL", -1],
  ["CC(=O)NC(CCCN)C(=O)NCc1ccccc1 (centres undefined)", "M19-MEL", -1],
  ["CN(C)CCNC(=O)c1cccc2c1C(=O)c1ccccc1C2=O", "M19-MEL", -1],
  ["O=C(COc1ccc(Cl)cc1)N1N=C(c2ccc(Cl)cc2)CC1(O)c1ccccc1 (centres undefined)", "M19-MEL", -1],
  ["Cn1c(=O)c(NC(=O)C(Cl)(Cl)Cl)nc2ccccc21", "M19-MEL", -1]
]}

Here's the next entry for you.
Hello, I am checking results. What call was entered for COc1cc2c3c(c1OC)-c1c(ccc4c1OCO4)CC3(C#N)N(C(=O)c1ccccc1)CC2 (centres undefined) ? -1

----------
- System: SNB-78
- TEST_DESCRIPTION: NCI tumour cell line growth inhibition, 48 h
Active and inactive are the calls of the source. Rule as the data show it: active = GI50 up to about 1.1 µM and inactive = higher.
Give one outcome, nothing more. List: active, inactive

Worked set:
{"columns": ["COMPOUND", "ASSIGNED_LABEL"],
 "data": [
  ["COc1cc2cc[n+](C)c(Cc3ccccc3)c2cc1OC", "inactive"],
  ["Cc1cc(N(CCOS(C)(=O)=O)CCOS(C)(=O)=O)ccc1/C=N/c1ccc(-c2nc(Cc3ccccc3)sc2C)cc1", "inactive"],
  ["CC(=O)OC1C(O)C(C)OC(OC2C(OC(=O)C3CCC4C(C3)OC3(CC(OC(=O)/C=C/c5ccccc5)C(C)CO3)C43CO3)OC(C)C(O)C2OC(C)=O)C1O (configuration not stated)", "active"],
  ["COC1C(O)CC(OC2CC(Oc3cc4cc5c(c(O)c4c(O)c3C)C(=O)[C@@H](OC3CC(OC4CC(OC6CC(C)(O)C(OC(C)=O)C(C)O6)C(O)C(C)O4)C(O)C(C)O3)[C@H]([C@H](OC)C(=O)[C@@H](O)[C@@H](C)O)C5)OC(C)C2OC(C)=O)OC1C (some centres not stated)", "active"],
  ["CSc1nc2c(nc(N)n2C2OC(CO)C(O)C(O)C2O)c(=O)n1C (configuration not stated)", "inactive"]
]}

Hello, I am checking results. What call was entered for O=C(O)c1cc(=O)c2c([nH]c3ccccc32)s1 ? inactive

Hello, I am checking results. What call was entered for CC1=CC(=O)CCC2(C)C1CC[C@@H]2OC=O (some centres not stated) ? inactive
